Hey, just so you know, these numbers are from ChEMBL document CHEMBL3612021.

biological target: UniProt:P30542; assay: Displacement of [3H]DPCPX from human adenosine A1 receptor expressed in CHO cell membranes assessed as association rate constant by competition association assay
Sequence (P30542 whole entry): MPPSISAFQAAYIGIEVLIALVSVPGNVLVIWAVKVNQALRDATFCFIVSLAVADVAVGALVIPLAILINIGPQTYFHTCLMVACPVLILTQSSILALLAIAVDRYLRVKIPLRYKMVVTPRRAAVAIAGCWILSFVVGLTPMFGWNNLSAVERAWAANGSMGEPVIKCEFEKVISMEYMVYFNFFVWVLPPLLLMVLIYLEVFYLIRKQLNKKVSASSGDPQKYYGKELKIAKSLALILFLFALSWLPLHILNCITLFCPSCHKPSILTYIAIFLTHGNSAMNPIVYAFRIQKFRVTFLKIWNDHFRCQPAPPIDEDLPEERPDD
QUANTITY_NAME: K

> print(dat)
                         chemical.structure  quantity.name           result
1  COc1ccc(-c2c(C#N)c(N)nc(SCc3csc(-c4ccc(Cl)c(Cl)c4)n3)c2C#N)cc1              K  1.1 ×10⁶ /M/min
2  COc1ccc(-c2c(C#N)c(N)nc(SCc3nc(-c4ccc(Cl)cc4)sc3Cl)c2C#N)cc1              K  1.4 ×10⁶ /M/min
3  COc1ccc(-c2c(C#N)c(N)nc(SCc3csc(-c4ccccc4Cl)n3)c2C#N)cc1              K  9.4 ×10⁵ /M/min
4  COc1ccc(-c2c(C#N)c(N)nc(SCc3csc(-c4ccc(Cl)cc4)n3)c2C#N)cc1              K  2.6 ×10⁶ /M/min

* * *

molecular target: Adenosine receptor A1 (Homo sapiens); test: Displacement of [3H]DPCPX from human adenosine A1 receptor expressed in CHO cell membranes at 1 uM by competition association assay
Consider the following compounds and their measured inhibition readings.
QUANTITY_NAME: inhibition

> print(dat)
                          chemical.structure  result
 1  CC(C)CCNc1nc(SCc2csc(-c3ccc(Cl)cc3)n2)nc(-c2ccc3c(c2)OCO3)c1C#N   < 80%
 2  N#Cc1c(N)nc(SCc2coc(-c3cccc(F)c3)n2)c(C#N)c1-c1ccc(O)cc1   > 80%
 3  N#Cc1c(N)nc(SCc2csc(-c3ccc(I)cc3)n2)nc1-c1ccc2c(c1)OCO2   > 80%
 4  COc1ccc(-c2c(C#N)c(N)nc(SCc3csc(-c4ccccc4F)n3)c2C#N)cc1   > 80%
 5  N#Cc1c(N)nc(SCc2csc(-c3ccc(Cl)cc3)n2)c(C#N)c1-c1ccc(O)cc1   > 80%
 6  CC(=O)Nc1ccc(-c2nc(SCc3csc(-c4ccc(Cl)cc4)n3)nc(N)c2C#N)cc1   > 80%
 7  N#Cc1c(N)nc(SCc2csc(-c3ccc(Cl)c(Cl)c3)n2)c(C#N)c1-c1ccc(O)cc1   > 80%
 8  N#Cc1c(N)nc(SCc2csc(-c3ccc(Br)cc3)n2)c(C#N)c1-c1ccc(O)cc1   > 80%
 9  N#Cc1c(N)nc(SCc2csc(-c3ccc(Br)cc3)n2)nc1-c1ccc2c(c1)OCO2   > 80%
10  CCCCNc1nc(SCc2csc(-c3ccc(Cl)cc3)n2)nc(-c2ccc3c(c2)OCO3)c1C#N   < 80%
11  N#Cc1c(N)nc(SCc2csc(-c3ccc(Cl)cc3)n2)nc1-c1ccccc1   > 80%
12  COc1ccc(-c2c(C#N)c(N)nc(SCc3csc(-c4cccc(F)c4)n3)c2C#N)cc1   > 80%
13  N#Cc1c(NCC(c2ccccc2)c2ccccc2)nc(SCc2csc(-c3ccc(Cl)cc3)n2)nc1-c1ccc2c(c1)OCO2   < 80%
14  N#Cc1c(N)nc(SCc2csc(-c3ccc(Cl)cc3)n2)nc1-c1ccc(OC(F)(F)F)cc1   > 80%
15  N#Cc1c(N)nc(SCc2csc(-c3ccc(Cl)cc3)n2)nc1-c1ccc(O)cc1   > 80%
16  COc1ccc(-c2nc(SCc3csc(-c4ccc(Cl)cc4)n3)nc(N)c2C#N)cc1   < 80%
17  CC(=O)Nc1ccc(-c2nc(SCc3cccc(CCC(=O)N4CCN(CCCCN5CCC(C)CC5)CC4)n3)nc(N)c2C#N)cc1   < 80%
18  N#Cc1c(N)nc(SCc2coc(-c3ccc(Cl)cc3)n2)c(C#N)c1-c1ccc(O)cc1   > 80%
19  N#Cc1c(N)nc(SCc2csc(-c3ccc4c(c3)OCO4)n2)nc1-c1ccc2c(c1)OCO2   > 80%
20  N#Cc1c(N)nc(SCc2csc(-c3ccccc3Cl)n2)c(C#N)c1-c1ccc(O)cc1   > 80%
21  CNc1nc(SCc2csc(-c3ccc(Cl)cc3)n2)cc(-c2ccc3c(c2)OCO3)c1C#N   > 80%
22  N#Cc1c(N)nc(SCc2csc(-c3ccccc3)n2)nc1-c1ccc2c(c1)OCO2   > 80%
23  N#Cc1c(N)nc(SCc2csc(-c3ccc(F)cc3)n2)nc1-c1ccc2c(c1)OCO2   > 80%
